species: Homo sapiens; experiment: Selectivity for human partial length TAF1 bromodomain 2 (D1521 to D1656 residues) expressed in bacterial expression system over human partial length BRD4 BD1 (N44 to E168 residues) expressed in bacterial expression system by BROMOscan analysis
Would you kindly list Selectivity ratio for each of these molecules?

// Selectivity ratio lookup, key: Cc1cc2c(C3=CCOCC3)cnc(NC3CCN(CC(F)CN)CC3)c2[nH]c1=O (stereo not drawn)
> 5000

Reported Selectivity ratio, molecule Cc1cc2c(C3=CCOCC3)cnc(NC3CCN(CC(F)(F)CN)CC3)c2[nH]c1=O : ____
> 100

Query: Selectivity ratio; subject: C=CCCc1cc2c(C3=CCOCC3)cnc(NC3CCN(C(=O)C(F)(F)CN)CC3)c2[nH]c1=O
> 50
